All values here come from PubChem BioAssay AID1159580.

assay: chemical genetic growth profiling, strain panel (AID 1159580);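 further: tested at 20 µM; growth read once vehicle control cultures reached saturation at 30 °C; 1 = growth at the plate median or of vehicle wells; lower values mean less growth of the strain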; details: S. cerevisiae deletion strains, growth OD, locus YNL248C, strain rpa49
Screen size: about 5,500 compounds; about 2,000 (36%) were called active. Inconclusive results (about 18%) are left out. No stated cut-off is given here; in the data, active means normalized growth mostly below about 0.91 (no sharp cut-off); inconclusive means no clear call, values can overlap the other calls; inactive means mostly above about 0.92. The list shows a part of the results.
Permitted responses: label 1 (active), label 0 (inactive)

Input: Kindly provide the recorded test outcome for the following molecule: CC1(C)S[C@@H]2[C@H](NC(=O)[C@H](NC(=O)N3CCNC3=O)c3ccccc3)C(=O)N2C1C(=O)O (stereo partly specified)
Output: label 0

Input: // outcome(item) with item = `COc1c(O)cc2oc3cc(O)c(CC=C(C)C)c(O)c3c(=O)c2c1CC=C(C)C`
Output: label 0

Input: What is the recorded call for this molecule in the test? C=C1CC[C@H](O)C/C1=C/C=C1\CCC[C@]2(C)C([C@H](C)/C=C/[C@H](C)C(C)C)CC[C@@H]12 (stereo partly specified)
Output: label 0

Input: Can you look up the reported call for `O=C1C[C@@H](c2ccc(O)cc2)Oc2cc(O)cc(O)c21` for me?
Output: label 0

Input: Hello, I am checking results. What call was entered for `C[C@@H]1O[C@@H](O[C@H]2[C@@H](Oc3cc(O)c4c(c3)O[C@H](c3ccc(O)cc3)CC4=O)O[C@H](CO)[C@@H](O)[C@@H]2O)[C@H](O)[C@H](O)[C@H]1O` ?
Output: label 0

Input: // return assay outcome for `O=c1ccc2cc(O)c(O)cc2o1`
Output: label 0

Input: What is the recorded call for this molecule in the test? `Cc1cc(=O)c2c(O)cc(O)c(C)c2o1`
Output: label 0

Input: What outcome does the record of this test show for `O=c1ccc2ccccc2o1` ?
Output: label 0

Input: Lab log entry: `CN=C(NC#N)NCCSCc1nc(N=C(N)N)cs1` — outcome as called in the assay?
Output: label 0

Input: Which outcome was entered for the molecule `CN=C(NC#N)NCCSCc1nc[nH]c1C` in this test?
Output: label 0

Input: // return assay outcome for `S=C=NCc1ccccc1`
Output: label 1

###

test: chemical genetic growth profiling, strain panel (AID 1159580);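 further: tested at 20 µM; growth read once vehicle control cultures reached saturation at 30 °C; 1 = growth at the plate median or of vehicle wells; lower values mean less growth of the strain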; conditions: S. cerevisiae deletion strains, growth OD, locus YLR371W, strain rom2, hits give low values
The whole screen tested about 5,500 compounds, of which about 2,000 (36%) were called active. Another 18% or so got no clear call; they are omitted. This is one part of the list.
Sorting guide: entries reporting normalized growth beneath 1 go in the class 1 pile, the rest go in the class 0 pile.

COMPOUND: CC(=O)O[C@H]1C(=O)[C@@]2(C)C([C@H](OC(=O)c3ccccc3)[C@]3(O)C[C@H](OC(=O)[C@H](O)[C@@H](NC(=O)c4ccccc4)c4ccccc4)C(C)=C1C3(C)C)[C@]1(OC(C)=O)CO[C@@H]1C[C@@H]2O (stereo not given in full)
GROUP_LABEL: class 0

Now consider the entry below.
Input: Lab note: normalized growth threshold 1. Does this compound come in strictly under it? `CC(C)=CCc1c(O)cc2oc(C)cc(=O)c2c1O`
Output: class 1

###

Would you kindly list normalized growth for each of these compounds?
experiment: chemical genetic growth profiling, strain panel (AID 1159580);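 further: tested at 20 µM; growth read once vehicle control cultures reached saturation at 30 °C; 1 = growth at the plate median or of vehicle wells; lower values mean less growth of the strain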; details: S. cerevisiae deletion strains, growth OD, locus YNL006W, strain LST8, hits give low values
The campaign covered roughly 5,500 compounds. About 2,000 (36%) were called active. Inconclusive results (about 18%) are left out. Some of the results follow.
Answers are plain numbers.

Look over these answered cases.
COMPOUND: C/C(=N/NC(N)=S)c1ccccn1
normalized growth: 0.988
--
COMPOUND: COc1ccc(NC(=O)O/N=C(/N)c2ccc(Oc3c(Cl)cncc3Cl)cc2)cc1
normalized growth: 0.981
--
COMPOUND: Cn1c([N+](=O)[O-])cnc1/C=C(\C#N)C(=O)Nc1ccc(F)cc1
normalized growth: 0.219
--
COMPOUND: Cc1ccccc1C(=O)N1CCc2c([nH]c3ccccc23)C1C(F)(F)F (stereo unspecified)
normalized growth: 1
--
COMPOUND: Cc1oc2c(F)c(F)c(F)c(F)c2c1C(=O)ONC(N)c1ccc(OS(=O)(=O)N(C)C)cc1 (stereo unspecified)
normalized growth: 0.97
--
COMPOUND: O=C(Nc1cc(Cl)cc(Cl)c1)Nc1cc(-c2cccs2)[nH]n1
normalized growth: 0.955
--
COMPOUND: N#Cc1c(Cl)c(Cl)c(Cl)c(Cl)c1C#N
normalized growth: 0.574
--
COMPOUND: C=CC(=O)N1CCc2cc([N+](=O)[O-])ccc21
normalized growth: 0.754

Your task in this section: give normalized growth for each listed record.
1. O=[N+]([O-])c1cc(C(F)(F)F)ccc1-n1ccc(-c2cccs2)n1
2. NC(N)=Nc1nc(-c2cc(Cl)sc2Cl)cs1
3. C/C(=N/NC(N)=S)c1ccc(Oc2c(Cl)cncc2Cl)cc1

Output:
0.956
0.984
0.993
